assay-method-text: Pharmacokinetic study in healthy volunteers after oral administration of hordenine-rich dietary supplement (plasma, mag-MIP d-SPE, LC-MS/MS)
Assay type: in vivo, human
experimental-context: male, human, in vivo; plasma collected at 1 h after administration of 100 mg of hordenine; read-out: calculated concentration in test plasma
Experimental: Quantitative analysis was performed using an Agilent 1260 Infinity system (Agilent Technologies, Santa Clara, CA, United States, https://www.agilent.com), equipped with a degasser, an autosampler, and a binary pump coupled to a QTRAP 4000 hybrid triple quadrupole/linear ion trap mass spectrometer (AB Sciex, Framingham, MA, United States, https://sciex.com). The turbo ion spray source was operated in positive mode. […] The target compounds were analyzed in multiple reaction monitoring mode. […]
attribute-measured: concentration at 1 h
Please don't drop the unit; write it after the number.

get_value(item= CN(C)CCc1ccc(O)cc1 [hordenine, 4-(2-dimethylaminoethyl)phenol] , readout=concentration at 1 h) returns 8.7 ng/mL

###

assay-method-text: Pharmacokinetic study in healthy volunteers after oral administration of hordenine-rich dietary supplement (plasma, mag-MIP d-SPE, LC-MS/MS)
Format: in vivo, human
experimental-context: male, human, plasma; single oral dose 100 mg hordenine, three healthy volunteers, mean
attribute-measured: MRT last (h)
Hi! Could you send only the number? It should be in h, unit omitted.

Quick note, MRT last for CN(C)CCc1ccc(O)cc1 landed at 1.7

###

assay-method-text: Pharmacokinetic study in healthy volunteers after oral administration of hordenine-rich dietary supplement (plasma, mag-MIP d-SPE, LC-MS/MS)
Format: in vivo, human
experimental-context: male, human, plasma; single oral dose 100 mg hordenine, three healthy volunteers, mean; read-out: t1/2 (terminal half-life)
attribute-measured: half-life (min)
Report as a plain number; the unit min is understood.

half-life in this record for CN(C)CCc1ccc(O)cc1 : 54

###

assay-method-text: Pharmacokinetic study in healthy volunteers after oral administration of hordenine-rich dietary supplement (plasma, mag-MIP d-SPE, LC-MS/MS)
Type: in vivo, human
experimental-context: male, human, plasma; single oral dose 100 mg hordenine, three healthy volunteers, mean; read-out: Vz/Fnorm (body weight normalized)
attribute-measured: Vd/F (L/kg)
Response body: numeric value in L/kg, unit text excluded.

Measured Vd/F of CN(C)CCc1ccc(O)cc1 : 66
